Below, each entry is listed alongside its reported MIC.
Tested on: Vibrion Metschnicoff
Experiment: Minimal bacteriostatic concentration
Format: cell-based
Settings: Vibrion Metschnicoff; sodium salts; read-out: Minimal Bacteriostatic Concentration

>  <compound>
COc1ccc(C2(C(=O)NC3C(=O)N4C3SC(C)(C)C4C(=O)O)CCCC2)cc1 (stereo not shown)

>  <test.system>
Vibrion Metschnicoff

>  <MIC>
0.48 µg/mL

$$$$
>  <compound>
CC1(C)S[C@@H]2[C@H](NC(=O)Cc3ccccc3)C(=O)N2[C@H]1C(=O)O [Benzyl Penicillin, benzylpenicillin, reference compound]

>  <test.system>
Vibrion Metschnicoff

>  <MIC>
0.78 µg/mL

$$$$
>  <compound>
CCOc1ccc(C2(C(=O)NC3C(=O)N4C3SC(C)(C)C4C(=O)O)CCCC2)cc1 (stereo not shown)

>  <test.system>
Vibrion Metschnicoff

>  <MIC>
0.19 µg/mL

$$$$
>  <compound>
CCCOc1ccccc1C1(C(=O)NC2C(=O)N3C2SC(C)(C)C3C(=O)O)CCCC1 (stereo not shown)

>  <test.system>
Vibrion Metschnicoff

>  <MIC>
0.9 µg/mL

$$$$
>  <compound>
CCCOc1cccc(C2(C(=O)NC3C(=O)N4C3SC(C)(C)C4C(=O)O)CCCC2)c1 (stereo not shown)

>  <test.system>
Vibrion Metschnicoff

>  <MIC>
3.9 µg/mL

$$$$
>  <compound>
CCCCOc1ccc(C2(C(=O)NC3C(=O)N4C3SC(C)(C)C4C(=O)O)CCCC2)cc1 (stereo not shown)

>  <test.system>
Vibrion Metschnicoff

>  <MIC>
0.48 µg/mL

$$$$
>  <compound>
CCCCOc1cccc(C2(C(=O)NC3C(=O)N4C3SC(C)(C)C4C(=O)O)CCCC2)c1 (stereo not shown)

>  <test.system>
Vibrion Metschnicoff

>  <MIC>
15.6 µg/mL

$$$$
